experiment: Pharmacokinetics assay in rats after intragastrical administration; conditions: both, Sprague-Dawley, rat, in vivo, po, 2 mg/kg
measurement kind: Cmax (ng/mL)
Just the number please, in ng/mL, no unit attached.

// Cmax lookup, key: COCc1nnc(N2C[C@@H]3C[C@]3(c3ccc(F)cc3Cl)C2)n1-c1ccc(OC)nc1
350

###

molecular target: human V2R (Homo sapiens, UniProt P30518); assay: Inhibition activity on human V2R (cAMP HTRF assay, HEK293/human V2R pool cells, vasopressin)
Sequence (P30518 whole entry): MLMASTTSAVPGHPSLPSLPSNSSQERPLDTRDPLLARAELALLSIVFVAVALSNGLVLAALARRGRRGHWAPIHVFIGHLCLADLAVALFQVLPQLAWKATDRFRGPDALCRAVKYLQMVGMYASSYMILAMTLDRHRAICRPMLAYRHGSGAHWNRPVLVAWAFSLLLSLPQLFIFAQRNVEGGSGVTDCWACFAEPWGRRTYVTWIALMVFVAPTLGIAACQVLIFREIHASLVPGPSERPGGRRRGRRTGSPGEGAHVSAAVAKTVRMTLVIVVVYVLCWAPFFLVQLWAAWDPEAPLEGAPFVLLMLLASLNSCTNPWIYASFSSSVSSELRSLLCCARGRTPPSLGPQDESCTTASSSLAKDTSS
IC50 values for the compounds below.
// note: answer is a bare numeric in µM

Give the measured IC50 of [2H]C([2H])([2H])OCc1nnc(N2C[C@@H]3C[C@]3(c3ccc(F)cc3Cl)C2)n1-c1ccc(OC)nc1 [Example 14] .
10.4

Returns the measured IC50 for the input compound. Input: COCc1nnc(N2C[C@@H]3C[C@]3(c3ccc(F)cc3Cl)C2)n1-c1ccc(OC)nc1 [Example 9]
32.6

Could you share which IC50 value was measured for COc1ccc(-n2c(N3C[C@@H]4C[C@]4(c4ccc(F)cc4Cl)C3)nnc2C(F)(F)F)cn1 [Example 12] ?
29.5

Consider the compound CCOCc1nnc(N2C[C@@H]3C[C@]3(c3ccc(F)cc3Cl)C2)n1-c1ccc(OC)nc1 [Example 6] and give its measured IC50.
7.3

More entries:
Name the reported IC50 value associated with the compound COc1ccc(-n2c(COC(F)F)nnc2N2C[C@@H]3C[C@]3(c3ccc(F)cc3Cl)C2)cn1 [Example 11]
6.8

###

target: UniProt:P47901; assay: Inhibition activity on human V1bR (Fluo-4 calcium assay, HEK293/human V1bR pool cells, vasopressin 3 nM); settings: calcium signal
Sequence (P47901 whole entry): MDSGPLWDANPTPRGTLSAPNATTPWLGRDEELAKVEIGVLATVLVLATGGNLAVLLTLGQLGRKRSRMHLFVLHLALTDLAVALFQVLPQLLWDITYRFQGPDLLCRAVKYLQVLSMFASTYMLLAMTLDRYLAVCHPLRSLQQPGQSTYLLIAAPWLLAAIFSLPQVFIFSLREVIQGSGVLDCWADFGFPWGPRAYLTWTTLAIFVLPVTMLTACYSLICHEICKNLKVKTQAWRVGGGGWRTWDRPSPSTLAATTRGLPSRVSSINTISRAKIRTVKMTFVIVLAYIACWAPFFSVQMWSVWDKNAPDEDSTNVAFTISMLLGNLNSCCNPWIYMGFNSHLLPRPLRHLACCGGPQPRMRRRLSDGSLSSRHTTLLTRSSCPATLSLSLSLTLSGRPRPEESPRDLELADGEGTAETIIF
Binning of IC50 into classes: lo = under 20 µM, mid = from 20 µM up to 40 µM, hi = 40 µM and over

Below are worked cases with known answers.
Input COc1ccc(-n2c(COC(F)F)nnc2N2C[C@@H]3C[C@]3(c3ccc(F)cc3Cl)C2)cn1 ; output its category
lo

// return the class label for COc1ccc(-n2c(COCCF)nnc2N2C[C@@H]3C[C@]3(c3ccc(F)cc3Cl)C2)cn1
mid

Which class holds COCc1nnc(N2C[C@@H]3C[C@]3(c3ccc(F)cc3Cl)C2)n1-c1ccc(OC)nc1 ?
mid

Exercise: read the entry COCc1nnc(N2C[C@@H]3C[C@]3(c3cccc(F)c3Cl)C2)n1-c1ccc(OC)nc1 and state which class it falls under.
hi

Hi there! Could you help me figure out the category for COCc1nnc(N2CC3CC3(c3ccc(F)cc3Cl)C2)n1-c1ccc(OC)nc1 (stereo not shown) please?
hi

New cases:
Which IC50 category applies to COc1ccc(-n2c(CO[C@H]3CCOC3)nnc2N2C[C@@H]3C[C@]3(c3ccc(F)cc3Cl)C2)cn1 here?
hi

Categorize the following entry: CCOCc1nnc(N2C[C@@H]3C[C@]3(c3ccc(F)cc3Cl)C2)n1-c1ccc(OC)nc1
mid

Classify this compound: COc1ccc(-n2c(C)nnc2N2C[C@@H]3C[C@]3(c3ccc(F)cc3Cl)C2)cn1
lo

Record COc1ccc(-n2c(N3C[C@@H]4C[C@]4(c4ccc(F)cc4Cl)C3)nnc2C(F)(F)F)cn1 — which class?
lo

###

target: human V2R (Homo sapiens, UniProt P30518); assay: Inhibition activity on human V2R (cAMP HTRF assay, HEK293/human V2R pool cells, vasopressin)
measurement kind: IC50 (µM)
Write the value in µM as a bare number.

Worked examples follow.
Which measured IC50 value corresponds to COc1ccc(-n2c(COCCF)nnc2N2C[C@@H]3C[C@]3(c3ccc(F)cc3Cl)C2)cn1 ?
21.4

Report IC50 for COc1ccc(-n2c(C)nnc2N2C[C@@H]3C[C@]3(c3ccc(F)cc3Cl)C2)cn1 please.
90

Recorded IC50 for COCc1nnc(N2C[C@@H]3C[C@]3(c3cccc(F)c3Cl)C2)n1-c1ccc(OC)nc1 , please?
25.7

We next turn to a different compound, shown below.
Please report the recorded IC50 for COc1ccc(-n2c(CO[C@H]3CCOC3)nnc2N2C[C@@H]3C[C@]3(c3ccc(F)cc3Cl)C2)cn1 .
23

###

assay: Pharmacokinetics assay in rats after intragastrical administration; conditions: both, Sprague-Dawley, rat, plasma, po, 2 mg/kg
measurement kind: MRT (h)
The response must be a number in h with no trailing unit.

Look up MRT: COCc1nnc(N2C[C@@H]3C[C@]3(c3ccc(F)cc3Cl)C2)n1-c1ccc(OC)nc1
6.23

What value of measured MRT is listed for COCc1nnc(N2CC3CC3(c3ccc(F)cc3Cl)C2)n1-c1ccc(OC)nc1 (stereo not shown) ?
2.18

So what does the record say about MRT for CCOCc1nnc(N2C[C@@H]3C[C@]3(c3ccc(F)cc3Cl)C2)n1-c1ccc(OC)nc1 ?
6.7

Could you now consider this next compound?
Give its MRT value. Item: COc1ccc(-n2c(COC(F)F)nnc2N2C[C@@H]3C[C@]3(c3ccc(F)cc3Cl)C2)cn1
5.82
